All figures here come from PubChem BioAssay AID1241.

experiment: NF-kB promoter reporter activators, neuronal cells, dose response, cell-based, SH-SY5Y, luciferase (AID 1241); conditions: fold induction
Documented pEC50 across a set of compounds
Recall that pEC50 is obtained by taking minus log10 of the concentration measured in molar.

>>> print(df.to_string())
                                   compound  property_label  experimental_result
0  CS(=O)(=O)N1N=C(c2ccc(Br)cc2)CC1c1ccc2c(c1)OCO2 (stereo not drawn)           pEC50                 5.57
1           Cc1ccc(C(=O)Nc2nc3c(s2)CCCC3)o1           pEC50                 5.75
2           COc1ccc(-c2csc(Nc3ccccc3)n2)cc1           pEC50                 5.60

Please list pEC50 recorded for the compound Clc1ccc(CSc2nc3ccncc3[nH]2)cc1
5.16

Give reported pEC50 value for Cc1ccc(S/C=C\C(=O)c2ccccc2)cc1
5.71

Query pEC50 for CCn1cnc2cc(NCc3nc4ccccc4n3C)ccc21
5.85
